Test system: HIV-1 (96USHIPS7 strain)
experiment.notes: HIV attachment assay in PBMCs (cell-associated p24)
Assay type: cell-based
run.parameters: 15 μM; time 24 h
measured.attribute: pg p24 (pg)
# unit: pg | format: bare number

{"compound": "Cc1c(O)cc(C(C)(C)CCCC(C)C)cc1O", "pg p24 (pg)": 339}
{"compound": "CC(C)=CCCC1(C)CCc2c(O)cc(C(C)(C)CCCC(C)C)cc2O1 (stereo not drawn)", "pg p24 (pg)": 428}
{"compound": "C=C(C)[C@@H]1CCC(C)=C[C@H]1c1c(O)cc(CCCCC)cc1O [Cannabidiol, reference compound]", "pg p24 (pg)": 439}
{"compound": "COc1cc(C(C)(C)CCCC(C)C)cc(OC)c1OC", "pg p24 (pg)": 368}

Q. Kindly state the measured pg p24 obtained for CC1=CCC2C(C1)c1c(O)cc(C(C)(C)CCCC(C)C)cc1OC2(C)C (stereo not drawn) with HIV-1 (96USHIPS7 strain).
A. 297

Q. Kindly state the measured pg p24 obtained for Cc1ccc2c(c1)-c1c(O)cc(C(C)(C)CCCC(C)C)cc1OC2(C)C with HIV-1 (96USHIPS7 strain).
A. 352
